test system: HEK-293T; test: Multiplex assay against HEK293T; format: toxicity, cell-based; details: human, 12 h, 10 µM, compound concentration 10 uM, replicate 2
Would you mind telling me the reported Population Mitochondria Different-Phenotype (%) of each entry?
Answers are plain numbers, in %.

# COMPOUND, UNITS SYMBOL, MEASURED NUMBER
data = [
    ("CN1CCCC(n2nc(Cc3ccc(Cl)cc3)c3ccccc3c2=O)CC1.Cl (centres undefined) [AZELASTINE HYDROCHLORIDE]", "%", 98),
]

For every listed record, write down its Population Mitochondria Different-Phenotype (%).
1. Cc1[nH]c(/C=C2\C(=O)Nc3ccc(S(=O)(=O)N(C)c4cccc(Cl)c4)cc32)c(C)c1C(=O)N1CCN(C)CC1
2. COc1ncc(-c2ccc3nccc(-c4ccnnc4)c3c2)cc1NS(=O)(=O)c1ccc(F)cc1F
3. CN(C)C(=O)/C(C#N)=C/c1ccc(-c2nc3cnc4[nH]ccc4c3n2C2CCCCC2)o1

Result:
57
42
50
